Each entry below lists one item and its recorded growth value.
- Tested on: RPMI-8226 leukemia
- assay_method_text: NCI-60 one-dose screen, 48 h (100 = growth as untreated, 0 = no growth, -100 = all killed)
- protocol_conditions: 10 µM unless noted
This is part of a sample that, as a whole, favours compounds with a hit. Of some 83,000 tested, about 20% had one in any assay. Calls of active or inactive are those of the source. How the source made its calls: active means growth percent below 10; inactive means the rest.

Use these answered entries as a reference point.
>  <compound>
CC(=O)c1cccc(NS(=O)(=O)c2ccc(C)cc2)c1

>  <result>
86.6% (inactive)

$$$$
>  <compound>
CC(C)C1CCC(C)C(O)C1 (centres undefined)

>  <result>
101% (inactive)

$$$$
>  <compound>
Cc1cc2c(C(C)C)c(O)c(O)c(C=Nc3ccccc3[N+](=O)[O-])c2c(O)c1-c1c(C)cc2c(C(C)C)c(O)c(O)c(C=Nc3ccccc3[N+](=O)[O-])c2c1O

>  <result>
61.5% (inactive)

$$$$
>  <compound>
C=COC(=O)CCOCC(CC)CCCC (centres undefined)

>  <result>
53.2% (inactive)

$$$$
>  <compound>
CC(C)Sc1ncnc2nc[nH]c12

>  <result>
118% (inactive)

$$$$

Task: Tell us which growth value is on record for O=[N+]([O-])c1c(Cl)ncnc1Cl
Output: 96.2% (inactive)

Task: Tell us which growth value is on record for CCOC(=O)c1c[nH][nH]c1=O
Output: 93% (inactive)
